target: TAS2R38 (Homo sapiens); experiment: Calcium mobilization assay, HEK293T-Gα16gust44 cells expressing TAS2R38; conditions: maximal concentration tested: sucralose 100 mM, neotame 30 µM, Ace-K 300 mM, RebA 4 mM, RebM 4 mM, mogroside V 5 mM, erythritol 200 mM, D-allulose 500 mM, thaumatin 100 mM
Sequence (P59533 whole entry): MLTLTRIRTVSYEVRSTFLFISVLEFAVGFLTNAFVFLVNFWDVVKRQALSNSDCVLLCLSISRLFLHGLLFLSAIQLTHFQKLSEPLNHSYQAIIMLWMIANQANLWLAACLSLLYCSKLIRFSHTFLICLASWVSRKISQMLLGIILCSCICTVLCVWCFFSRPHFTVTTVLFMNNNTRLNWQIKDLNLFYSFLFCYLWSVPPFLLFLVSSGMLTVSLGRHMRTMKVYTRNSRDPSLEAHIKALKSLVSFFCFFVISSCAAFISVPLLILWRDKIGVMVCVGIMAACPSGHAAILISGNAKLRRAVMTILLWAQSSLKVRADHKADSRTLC
property.name: Response of TAS2R38

[ask] Request body: readout Response of TAS2R38, system TAS2R38 (Homo sapiens), query C[C@H](CC[C@@H](O[C@@H]1O[C@H](CO[C@@H]2O[C@H](CO)[C@@H](O)[C@H](O)[C@H]2O)[C@@H](O)[C@H](O)[C@H]1O[C@@H]1O[C@H](CO)[C@@H](O)[C@H](O)[C@H]1O)C(C)(C)O)[C@H]1CC[C@@]2(C)[C@@H]3CC=C4[C@@H](CC[C@H](O[C@@H]5O[C@H](CO[C@@H]6O[C@H](CO)[C@@H](O)[C@H](O)[C@H]6O)[C@@H](O)[C@H](O)[C@H]5O)C4(C)C)[C@]3(C)[C@H](O)C[C@]12C [Mogroside V, mogroside V] . Return the value.
[reply] +
